Tested on: IGROV1 ovarian
Protocol Summary: NCI tumour cell line growth inhibition, 48 h; in the data active = GI50 below about 0.43 µM; inactive = the rest
Thanks in advance; please answer with one of these: label 1 for active, label 0 for inactive

Before answering, review these 5 worked examples.
Cc1ccc(OCCOCCOCCOCCOc2ccc(C)n(O)c2=S)c(=S)n1O = label 1
COc1ccc(-c2nccn2-c2ccc(OC)cc2)cc1 = label 0
CC(C)[C@H](O)C(=O)N[C@@H](C)C(=O)N[C@@H]1C(=O)N(C)CCc2ccccc21 = label 0
O=C1c2ccccc2-c2c1c1ccccc1c(=O)n2CCN1CCNCC1 = label 0
c1ccc2c(c1)[nH]c1c2cc[n+]2cc3c(cc12)CCCC3 = label 0

Lab note: next compound to report on.
IN: Per the assay record, what outcome was assigned to CC(C)c1[nH]nc2c1N=C(c1ccccc1Cl)c1cc([N+](=O)[O-])ccc1N2 ?
OUT: label 0

All values here come from PubChem BioAssay (NCI).
